meta.source: ChEMBL document CHEMBL3603774

# Test system: Klebsiella pneumoniae
# Assay Comment: Antibacterial activity against Klebsiella pneumoniae MTCC 3384 after 24 hrs by microdilution method
# Assay type: functional
# Condition Info: MTCC 3384, 24 h
Collected MIC values appear next to each entry.

{"columns": ["Chemical Structure", "Tested System", "MIC (µg/mL)"],
 "data": [
  ["CCOC(=O)c1c(-c2ccccc2)nn(-c2ccccc2)c1COCc1c(-c2ccc(F)cc2)nc(N(C)S(C)(=O)=O)nc1C(C)C", "Klebsiella pneumoniae", 30],
  ["CCOC(=O)c1c(-c2ccccc2)nn(-c2ccccc2)c1Cn1c(S)nc2ccc(OC(F)F)cc21", "Klebsiella pneumoniae", 15],
  ["CCOC(=O)c1c(-c2ccccc2)nn(-c2ccccc2)c1COc1cc(OC)c(C=O)c(OC)c1", "Klebsiella pneumoniae", 20],
  ["CCOC(=O)c1c(-c2ccccc2)nn(-c2ccccc2)c1COc1ccc(C=O)cc1", "Klebsiella pneumoniae", 55],
  ["CCOC(=O)c1c(-c2ccccc2)nn(-c2ccccc2)c1COc1ccc(C=O)cc1OC", "Klebsiella pneumoniae", 45],
  ["CCOC(=O)c1c(-c2ccccc2)nn(-c2ccccc2)c1Cn1cnc2cc([N+](=O)[O-])ccc21", "Klebsiella pneumoniae", 25],
  ["CCOC(=O)c1c(-c2ccccc2)nn(-c2ccccc2)c1Cn1c(S)nc2ccccc21", "Klebsiella pneumoniae", 25],
  ["CCOC(=O)c1c(-c2ccccc2)nn(-c2ccccc2)c1Cn1cnc2cc(C)ccc21", "Klebsiella pneumoniae", 45],
  ["CCOC(=O)c1c(-c2ccccc2)nn(-c2ccccc2)c1COCc1ccccc1", "Klebsiella pneumoniae", 45]
]}
